# system: β5c subunit of the 20S proteasome (Homo sapiens, UniProt P20618+P28074)
# Construct: The proteasome tested in the present disclosure was derived from Raji cells; endogenous in cells; host or cells: Raji cells
# experimental-protocol: Proteasome inhibitory activity, β5c subunit (Raji cells treated with compound, lysed, Suc-LLVY-AMC substrate)
# Type: cell-based
# run-conditions: proteasome from Raji cells incubated with compound 4 h
Listed here: items and their measured IC50.

Solved entries:
query: Find the recorded IC50 belonging to COc1cccc(CNC(=O)C(CC2CC2)C(=O)N[C@@H](Cc2ccccc2)B(O)O)c1 (some centres unmarked) and report it.
result: ≤ 50 nM

query: Can you share its IC50? I mean this compound: "O=C(/C=C/C(=O)N[C@@H](Cc1ccccc1)B(O)O)NCc1cccc(-c2ccccc2)n1"
result: 50 to 200 nM

Next:
query: What value of IC50 has been reported for the following compound? "COc1cccc(CNC(=O)CC(=O)N[C@@H](Cc2ccccc2)B(O)O)c1"
result: ≤ 50 nM

query: What IC50 value was documented for this compound, Cc1ccc(C[C@H](NC(=O)C(C)C(=O)Nc2ccccc2)B(O)O)cc1 (some centres unmarked) ?
result: 50 to 200 nM

query: Recorded IC50 for CC(C(=O)NCc1ccccc1)C(=O)N[C@@H](Cc1ccccc1)B(O)O (some centres unmarked) , please?
result: ≤ 50 nM

query: Consider the compound CC(C)C[C@H](NC(=O)C(C)C(=O)NC1CCCCC1)B(O)O (some centres unmarked) and give its measured IC50.
result: 50 to 200 nM

query: Value lookup for IC50; key = Cc1ccc(C[C@H](NC(=O)C(C)C(=O)NCc2ccccc2)B(O)O)cc1 (some centres unmarked)
result: 50 to 200 nM

query: Fill blank: measured IC50 of the compound Cc1ccc(C[C@H](NC(=O)C(Cc2ccccc2)C(=O)NCc2ccc3[nH]ccc3c2)B(O)O)cc1 (some centres unmarked) is ____.
result: ≤ 50 nM

Cited source: patent US20250346613A1
